The reported numbers originate from PubChem BioAssay (NCI).

system: 786-0 renal; assay: NCI tumour cell line growth inhibition, 48 h
Use Satisfied when the recorded TGI is no lower than 20 µM; use Not satisfied when it is lower.

1) Cc1nc2cccc([N+](=O)[O-])c2c(NCCCN(C)C)c1C; Satisfied
2) CCCCC/C(C=C(C#N)C#N)=C/c1ccccc1; Satisfied
3) COc1ccc(C(C#N)NNC(=O)c2ccccc2O)cc1OC (stereo unspecified); Satisfied
4) CCN(CC)CCc1c2c(nc3ccccc13)C(=O)c1cccnc1C2=O; Not satisfied
5) NC(C(F)(F)F)(C(F)(F)F)P(=O)(Cc1ccccc1)Cc1ccccc1; Satisfied
6) O=C1/C(=C/c2ccc(Br)cc2)C=C(c2ccccc2)N1CCc1ccccc1; Not satisfied
7) CC(C)(N=NC(C)(C)C(=O)NCCO)C(=O)NCCO; Satisfied
8) COc1ccc2c(c1)c(-c1nc(-c3cn(C)c4ncccc34)cs1)cn2CCCN1CCCCC1; Not satisfied
9) O=C1C(Cl)=C(N2CCN(C3=C(Cl)C(=O)c4ccccc4C3=O)CC2)C(=O)c2ccccc21; Not satisfied
10) Cc1ccc(-c2c3c([nH]c(=O)c2C#N)-c2cc(F)ccc2OC3)cc1; Satisfied
11) CC(C)Sc1nc(C#N)cc2c1CCCC2; Satisfied
12) CC12CC[C@@H](C(C)(C)O)C1[C@@H](O)CC1(C)C2CCC2[C@@]3(C)CC[C@H](O)C(C)(C)C3C(O)C[C@]21C (stereo partly specified); Satisfied
13) COc1ccc2cc1Oc1ccc(cc1)CC1c3cc(c(OC)cc3CCN1C)Oc1c3c(cc4c1C(C2)N(C)CC4)OCO3 (stereo unspecified); Satisfied
14) CCOP(=O)(OCC)/C(C#N)=C/c1cnc(-c2ccccc2)[nH]1; Satisfied
15) N#Cc1ccc(C#Cc2ccccc2C#CCCCCO)cc1; Not satisfied
16) COC1C(CN[N+](=O)CC2OC3OC(C)(C)OC3C2OC)OC2OC(C)(C)OC21 (stereo unspecified); Satisfied
17) COC(=O)C(CCC#N)(CCC#N)C(=O)OC; Satisfied
18) CCOc1ccc2c(c1)[n+]([O-])c(S(=O)(=O)c1ccc(C)cc1)c(N)[n+]2[O-]; Satisfied
19) O=C(O)CN(CCNC(=O)OCC1c2ccccc2-c2ccccc21)CCNC(=O)OCC1c2ccccc2-c2ccccc21; Satisfied
20) COc1cc(C2c3cc4c(cc3C(NCC(O)CO)C3COC(=O)[C@H]23)OCO4)cc(OC)c1OC (stereo partly specified); Satisfied
21) Cc1nnc2n1N=C(c1cc(F)c(Cl)cc1Cl)/C(=C/c1ccc(Cl)cc1)S2; Satisfied

====

system: SF-295 CNS; experiment: NCI tumour cell line growth inhibition, 48 h; in the data active = GI50 below about 0.43 µM; inactive = the rest
Possible outcomes: class 1 (active), class 0 (inactive)

1) O=C1c2cccc(NCCN=Cc3cc(O)ccc3O)c2C(=O)c2c(NCCN=Cc3cc(O)ccc3O)cccc21; class 0
2) CN1CCN(Cc2ccc(NC(=O)c3cncc(C#Cc4cnc(N)c5ccc(C#N)cc45)c3)cc2C(F)(F)F)CC1; class 1
3) CN(C)CCNc1cc(-c2ccccc2)nc2ccccc12; class 0
4) COC(=O)CCCCN=Cc1c(O)c(O)c(C(C)C)c2cc(C)c(-c3c(C)cc4c(C(C)C)c(O)c(O)c(C=NCCCCC(=O)OC)c4c3O)c(O)c12; class 0

====

test system: OVCAR-4 ovarian; test: NCI tumour cell line growth inhibition, 48 h
assay_readout: GI50

1. COc1cc(/C=C/c2cc(/C=C/c3ccc(O)c(OC)c3)n(-c3ccccc3)n2)ccc1O; 0.536 µM
2. Cc1c(C(=O)N/N=C/c2ccc(Cl)cc2)nnn1-c1ccnc2c(C(F)(F)F)cccc12; 2.9 µM
3. COc1ccc2c(c1)c(-c1nc(-c3cn(C)c4ncccc34)cs1)cn2CCCN1CCCCC1; 1.87 µM
4. O=[N+]([O-])/C=C\c1ccc(Cl)c(Cl)c1; 11.5 µM
5. O=C(O)CCCCC(CCSCc1ccccc1)SCc1ccccc1 (stereo not given); 70.2 µM

====

test system: SR leukemia; test: NCI tumour cell line growth inhibition, 48 h
*1 amine or outer side, *2 acyl side, *3 side chain or, on linkers, in order; H or OH if unused. Where a SMILES comes first, the peptide text is derived from it. Bridges are numbered along the chain shown (N, C = ends). [ ]: non-standard residue; d: D form. The star is where a group is joined. ξ: configuration not given here. X34 = O=C(C(CCCCNO[*:3])N[*:1])[*:2]; Fmoc = O=C(OCC1c2ccccc2-c2ccccc21)*; ξW = NC(Cc1c[nH]c2ccccc12)C(=O)O; ξP = O=C(O)C1CCCN1
assay_readout: TGI

1) CC(C)OP(=O)(OC(C)C)c1c(Nc2ccccc2)n[nH]c1N; > 100 µM
2) C[C@@]12[C@H]3CC[C@@H]1[C@H](O)C(=O)N2CC3; > 100 µM
3) COc1ccc(-n2c(=O)c3[nH]cnc3n(-c3ccc(OC)cc3)c2=S)cc1; > 100 µM
4) CN1C(=O)C2C(=O)N(Cc3ccccc3)CC(=O)N2c2cccnc21 (stereo not given); > 100 µM
5) Cn1cc2ccccc2c1-c1nc(N)nc(F)n1; > 100 µM
6) CNC(=O)OCc1c(COC(=O)NC)c(-c2ccc(Cl)c(Cl)c2)n2c1SCC2; 39 µM
7) NC(=O)CNC(=O)C1CCCN1C(=O)C1CCCCNOC(=O)CC[C@@H](NC(=O)OCC2c3ccccc3-c3ccccc32)C(=O)NC(Cc2c[nH]c3ccccc23)C(=O)N1 (stereo not given in full) (Fmoc-[dE][ξW][X34][ξP]G-NH2; ester 1-3); > 100 µM
8) O=C(c1ccco1)c1nc2ccc(C(F)(F)F)cc2[n+]([O-])c1C(F)(F)F; 57.4 µM
9) COc1cccc2c(N)c3cccc(C(=O)NCCN(C)C)c3nc12; 1.12 µM
10) O=C1/C(=C/c2ccc(Br)cc2)C=C(c2ccccc2)N1CCc1ccccc1; > 100 µM
11) CCCc1cc(=O)c2c(C)c3[nH]c4ccc(Cl)cc4c3c(C)c2[nH]1; 4.93 µM
12) Cc1nc2c(nc1Cl)nc(Oc1ccc(Cl)cc1)c1ccccc12; > 100 µM
13) COc1cc(OC)cc(-c2ccc(-c3ccc(C(=N)N)o3)o2)c1; 4.36 µM
14) COC(=O)C(/C(=N/NC(N)=O)C(=O)Nc1ccc(C)cc1)c1nc2ccc([N+](=O)[O-])cc2[nH]c1=O (stereo not given); > 100 µM
15) Cc1c(F)c(N)c2c(=O)cc(-c3ccc(NC(=O)CN(C)C)c(F)c3)oc2c1F; 61 µM
16) Cc1ccc(S(=O)(=O)N(CCOc2ccc(/C(N)=N/Cl)cc2)CCOc2ccc(/C(N)=N\Cl)cc2)cc1; > 100 µM
17) CC(C)c1ccc2[nH]c(O)c(-c3[nH]c4ccccc4c3N=O)c2c1; 7.32 µM
18) O=C(CI)NC1Oc2ccccc2-c2oc(=O)c(-c3ccccc3)cc21 (stereo not given); > 100 µM
19) CN(CCC#N)c1ccc(/C=C2\SC(=S)NC2=O)cc1; > 100 µM
20) O=C(O)c1c2c(cc3c1CC1(Cc4ccccc4C1)C3)CCC2; > 100 µM

====

// reported TGI for each item listed
tested on: A549 NSCLC; assay: NCI tumour cell line growth inhibition, 48 h
assay_readout: TGI

1) O=C1/C(=C/c2ccccc2)N=C(c2ccccc2)N1n1c(-c2ccccc2)nc2ccccc2c1=O; > 100 µM
2) COC(=O)C1=C(C(=O)OC)C2C=CC1C1C(Cl)=C(Cl)C21 (stereo unspecified); > 100 µM
3) CN1C(=O)C2C(=O)N(Cc3ccccc3)CC(=O)N2c2cccnc21 (stereo unspecified); > 100 µM
4) Brc1ccc(CCNCCN2CCCCC2)cc1; 30 µM
5) COc1cc(-c2cc(=O)c3cc4c(cc3[nH]2)OCO4)cc(OC)c1O; > 10 µM
6) CC1OC(O[C@H]2C[C@@H](O)[C@]3(CO)[C@H]4[C@H](O)C[C@]5(C)[C@@H](C6=CC(=O)OC6)CC[C@]5(O)[C@@H]4CC[C@]3(O)C2)C(O)C(O)C1O (stereo partly specified); 39 µM
7) N#C/C(=C/c1ccsc1)C(=O)c1ccccc1; > 100 µM
8) O=C(O)CCCCC(CCSCc1ccccc1)SCc1ccccc1 (stereo unspecified); > 100 µM
9) COc1cc(/C=C/c2cc(/C=C/c3ccc(O)c(OC)c3)n(-c3ccccc3)n2)ccc1O; 2.16 µM
10) CCCCNC1=C(C(=O)OCC)C(=O)CO1; > 100 µM
11) COCOC1/C=C/CCCCC2=C(C)C=C(C1)O2 (stereo unspecified); > 100 µM
12) CC(O[Si](c1ccccc1)(c1ccccc1)C(C)(C)C)[C@H](NC(=O)OC(C)(C)C)C(=O)O[Si](c1ccccc1)(c1ccccc1)C(C)(C)C (stereo partly specified); 27.9 µM
13) Nc1ccc2nc(-c3ccccn3)c(-c3ccccn3)nc2c1; > 100 µM
14) OCc1ccc2[n+](c1)CCC1c3ccccc3NC21 (stereo unspecified); > 300 µM
15) COC(=O)C(/C(=N/NC(N)=O)C(=O)Nc1ccc(C)cc1)c1nc2ccc([N+](=O)[O-])cc2[nH]c1=O (stereo unspecified); > 100 µM
16) CN(C)/N=N/c1nc2c(c(=O)n(C)c(=O)n2C)n1C; > 100 µM
17) Cc1ccc(CS/C(=C\c2ccc([N+](=O)[O-])cc2)C(=O)c2ccc(F)cc2)cc1; > 100 µM
18) COc1cc2c3c(n(C)c(=O)c2cc1OC)-c1cc2c(cc1/C3=C\CCCN1C(=O)c3ccccc3C1=O)OCO2; > 40 µM
19) N=C1CSC2=NC3=C(CCC/C3=C\c3ccccc3)C(c3ccccc3)N12 (stereo unspecified); 19.1 µM
20) N#CC(C(=N/O)/C(=N/O)C(C#N)c1ccc(Cl)cc1)c1ccc(Cl)cc1 (stereo unspecified); > 100 µM
21) Cc1nnc2n1N=C(c1cc(F)c(Cl)cc1Cl)/C(=C/c1ccc(Cl)cc1)S2; 99.6 µM
